Reported ID50 B/Harbin/7/95 values for a set of compounds
Tested on: Influenza B/Harbin/7/95
Assay type: cell-based
Settings: concentration that inhibited CPE by 50%; MDCK cells, up to 72 hours, MTT
measured-quantity: ID50 B/Harbin/7/95 (ng/mL)

{"compound": "CC(=O)N[C@H]1[C@H]([C@H](OC(=O)NCCCCCCNC(=O)c2ccc(C(=O)NCCCCCCNC(=O)O[C@@H]([C@@H]3OC(C(=O)O)=C[C@H](NC(=N)N)[C@H]3NC(C)=O)[C@H](O)CO)cc2)[C@H](O)CO)OC(C(=O)O)=C[C@@H]1NC(=N)N", "assay-target": "Influenza B/Harbin/7/95", "quantitative-result": 0.9}
{"compound": "CC(=O)N[C@H]1[C@H]([C@H](OC(=O)NCCCCNS(=O)(=O)c2cccc(S(=O)(=O)NCCCCNC(=O)O[C@@H]([C@@H]3OC(C(=O)O)=C[C@H](NC(=N)N)[C@H]3NC(C)=O)[C@H](O)CO)c2)[C@H](O)CO)OC(C(=O)O)=C[C@@H]1NC(=N)N", "assay-target": "Influenza B/Harbin/7/95", "quantitative-result": 0.07}
{"compound": "CC(=O)N[C@@H]1[C@@H](NC(=N)N)C=C(C(=O)O)O[C@H]1C(OC(=O)NCCC(=O)NCc1ccc(CNC(=O)CCNC(=O)O[C@@H]([C@@H]2OC(C(=O)O)=C[C@H](NC(=N)N)[C@H]2NC(C)=O)[C@H](O)CO)cc1)[C@H](O)CO (stereo partly drawn)", "assay-target": "Influenza B/Harbin/7/95", "quantitative-result": 0.4}
